# method.notes: UV absorbance: extinction coefficient at wavelength of maximum absorbency
# Format: physicochemical
property.label: wavelength of maximum absorbency λmax
Please don't drop the unit; write it after the number.

Reported wavelength of maximum absorbency λmax for CSc1ccc(S)cc1 : what is it? 280 nm

----------
# System: Mel-Ab melanocytes
# method.notes: mammalian-melanocyte-culture toxicity assay system
# Assay type: cell-based, mouse
# assay.setup: Mus musculus, Mel-Ab, read-out: T: concentration of compound that kills 50% of cells in the mammalian-melanocyte-culture toxicity assay system
Entries whose IC50 is below 400 µM take 1; entries at or above 400 µM take 0.

* COc1ccc(N)cc1OC | 0
* CC(=S)Nc1ccccc1 | 0
* COc1ccc(S)cc1OC | 0
* Oc1ccc2[nH]ccc2c1 | 1
* NC(=S)Nc1ccccc1 | 0

Note: attention shifts to another entry.
Check if IC50 falls below 400 µM for COc1cccc(S)c1 . 1

----------
# System: Mel-Ab melanocytes
# method.notes: mammalian-melanocyte-culture pigment assay system
# Type: cell-based, mouse
# assay.setup: read-out: P: concentration of compound that produces 50% inhibition in the mammalian-melanocyte-culture pigment assay system
Entries and their IC50 values follow.
Provide only the numeric value, understood in µM.

Recorded IC50, per entry:
• [Se]=c1[nH]c2ccccc2[nH]1 = 14
• COc1ccc(OC)c(S)c1 = 200
• CC(=O)Nc1ccc(SC(C)=O)cc1 = 30
• Cc1cccc2[nH]c(S)nc12 = 2.4
• COc1cccc2[nH]c(S)nc12 = 1.6

We next turn to a different compound, shown below.
Reported IC50 for S=c1[nH]c2cccnc2[nH]1 : what is it? 256

----------
# tested.on: mammalian tyrosinase (Mus musculus)
# Construct: Cellular lysates of Mel-Ab cells may be used as tyrosinase enzyme preparations; endogenous in cells
# Sequence (P11344 19-533): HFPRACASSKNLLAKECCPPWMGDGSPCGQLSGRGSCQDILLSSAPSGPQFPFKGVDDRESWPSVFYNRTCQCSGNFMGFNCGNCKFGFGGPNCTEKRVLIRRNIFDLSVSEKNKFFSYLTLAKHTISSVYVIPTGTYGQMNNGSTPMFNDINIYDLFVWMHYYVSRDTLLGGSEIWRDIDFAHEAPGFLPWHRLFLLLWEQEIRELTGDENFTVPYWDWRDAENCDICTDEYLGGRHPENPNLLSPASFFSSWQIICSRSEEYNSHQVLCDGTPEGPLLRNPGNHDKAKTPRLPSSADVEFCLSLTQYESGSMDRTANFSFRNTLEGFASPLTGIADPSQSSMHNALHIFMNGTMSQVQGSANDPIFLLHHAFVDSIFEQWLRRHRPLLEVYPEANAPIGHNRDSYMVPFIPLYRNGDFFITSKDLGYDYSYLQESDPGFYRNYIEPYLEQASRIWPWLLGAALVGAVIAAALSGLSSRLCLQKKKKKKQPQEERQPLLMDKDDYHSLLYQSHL
# method.notes: cell-free mammalian-enzyme assay system (tyrosinase inhibition, Mel-Ab cell lysates)
# assay.setup: read-out: E: concentration of compound that produces 50% pigment inhibition in the cell-free mammalian-enzyme assay system
Entries and their pIC50 values follow.
pIC50 here is simply -log10 of the concentration when that concentration is written in mol/L.

Recorded pIC50, per entry:
• [Se]=c1[nH]c2ccccc2[nH]1 [ID # 098] = 6.10
• COc1ccc(CS)cc1 [ID # 082] = 5.30
• CSc1ccc(S)cc1 [ID # 102] = 6.62
• Cc1cccc2[nH]c(S)nc12 [ID # 140] = 6.92
• COc1cccc2[nH]c(S)nc12 [ID # 084] = 7.15
• CC(=O)Nc1ccc(S)cc1 [ID # 083] = 4.72

Recall the recorded pIC50 for Sc1nc2ccccc2[nH]1 [ID # 138] with mammalian tyrosinase (Mus musculus) and state it. 6.60

Recall the recorded pIC50 for Sc1nc2ccccc2s1 [ID # 040] with mammalian tyrosinase (Mus musculus) and state it. 5.10

Recall the recorded pIC50 for CC(=S)Nc1ccccc1 [ID # 054] with mammalian tyrosinase (Mus musculus) and state it. 4.80

Recall the recorded pIC50 for CC(=O)n1c(=S)[nH]c2ccccc21 [ID # 205] with mammalian tyrosinase (Mus musculus) and state it. 6.30

Recall the recorded pIC50 for CC(=O)Nc1ccc(SC(C)=O)cc1 [ID # 148] with mammalian tyrosinase (Mus musculus) and state it. 3.30

Recall the recorded pIC50 for NC(=S)Nc1ccccc1 [ID # 033] with mammalian tyrosinase (Mus musculus) and state it. 5.70

Recall the recorded pIC50 for COc1cccc(S)c1 [ID # 099] with mammalian tyrosinase (Mus musculus) and state it. 4.28

Recall the recorded pIC50 for COC(=O)c1cccc(N)c1 [ID # 092] with mammalian tyrosinase (Mus musculus) and state it. 4.10

Recall the recorded pIC50 for COc1ccc(OC)c(S)c1 [ID # 093] with mammalian tyrosinase (Mus musculus) and state it. 3.30

Recall the recorded pIC50 for S=c1[nH]c2cccnc2[nH]1 [ID # 135] with mammalian tyrosinase (Mus musculus) and state it. 5.40

Recall the recorded pIC50 for Oc1ccc2c(c1)OCO2 [ID # 009] with mammalian tyrosinase (Mus musculus) and state it. 4.01

Recall the recorded pIC50 for COc1ccc(C(N)=S)cc1 [ID # 100] with mammalian tyrosinase (Mus musculus) and state it. 4.49

Recall the recorded pIC50 for COc1ccc(N)cc1OC [ID # 006] with mammalian tyrosinase (Mus musculus) and state it. 3.96

Recall the recorded pIC50 for Nc1ccc2c(c1)CCC2 [ID # 079] with mammalian tyrosinase (Mus musculus) and state it. 4.14

Recall the recorded pIC50 for COc1ccc(S)cc1OC [ID # 103] with mammalian tyrosinase (Mus musculus) and state it. 5.10

Recall the recorded pIC50 for Oc1ccc2[nH]ccc2c1 [ID # 026] with mammalian tyrosinase (Mus musculus) and state it. 4.27

----------
# Tested on: Mel-Ab melanocytes
# method.notes: mammalian-melanocyte-culture pigment assay system
# Format: cell-based, mouse
# assay.setup: Mus musculus, Mel-Ab, read-out: P: concentration of compound that produces 50% inhibition in the mammalian-melanocyte-culture pigment assay system
Categories are defined by ranges of IC50, namely c1: < 60 µM; c2: ≥ 60 µM and < 100 µM; c3: ≥ 100 µM

Answered cases to consult:
• COc1ccc(S)cc1OC [ID # 103] = c1
• NC(=S)Nc1ccccc1 [ID # 033] = c1
• CC(=O)n1c(=S)[nH]c2ccccc21 [ID # 205] = c1
• COc1cccc(S)c1 [ID # 099] = c2
• CC(=S)Nc1ccccc1 [ID # 054] = c1

Given Oc1ccc2[nH]ccc2c1 [ID # 026] , name the class its IC50 places it in. c3

Given CC(=O)Nc1ccc(S)cc1 [ID # 083] , name the class its IC50 places it in. c2

Given COC(=O)c1cccc(N)c1 [ID # 092] , name the class its IC50 places it in. c3

----------
# method.notes: UV absorbance: extinction coefficient at wavelength of maximum absorbency
# Type: physicochemical
# assay.setup: at λmax
Please enter T where compound extinction coefficient ε is greater than or equal to 4000 OD/M × cm, and F where it is lower.

Answered cases to consult:
* CC(=O)Nc1ccc(S)cc1 | T
* COc1cccc(S)c1 | F

Threshold query (compound extinction coefficient ε >= 4000 OD/M × cm) on COc1ccc(CS)cc1 F

Threshold query (compound extinction coefficient ε >= 4000 OD/M × cm) on Sc1nc2ccccc2[nH]1 T

Threshold query (compound extinction coefficient ε >= 4000 OD/M × cm) on CSc1ccc(S)cc1 F

----------
# method.notes: UV absorbance: extinction coefficient at wavelength of maximum absorbency
# Format: physicochemical
property.label: wavelength of maximum absorbency λmax (nm)
Provide only the numeric value, understood in nm.

- COc1ccc(S)cc1OC [ID # 103]: 250
- COc1ccc(CS)cc1 [ID # 082]: 275

Reported wavelength of maximum absorbency λmax for CC(=O)Nc1ccc(S)cc1 [ID # 083] : what is it? 265

Reported wavelength of maximum absorbency λmax for CC(=O)Nc1ccc(SC(C)=O)cc1 [ID # 148] : what is it? 255

Reported wavelength of maximum absorbency λmax for COc1cccc2[nH]c(S)nc12 [ID # 084] : what is it? 310

Reported wavelength of maximum absorbency λmax for Sc1nc2ccccc2[nH]1 [ID # 138] : what is it? 300

Reported wavelength of maximum absorbency λmax for COc1cccc(S)c1 [ID # 099] : what is it? 265

Reported wavelength of maximum absorbency λmax for Cc1cccc2[nH]c(S)nc12 [ID # 140] : what is it? 305

Reported wavelength of maximum absorbency λmax for COc1ccc(OC)c(S)c1 [ID # 093] : what is it? 305

----------
Entries and their IC50 values follow.
# Tested on: Mel-Ab melanocytes
# method.notes: mammalian-melanocyte-culture toxicity assay system
# Format: cell-based, mouse
# assay.setup: Mus musculus, Mel-Ab, read-out: T: concentration of compound that kills 50% of cells in the mammalian-melanocyte-culture toxicity assay system
Provide only the numeric value, understood in µM.

Recorded IC50, per entry:
* CC(=O)n1c(=S)[nH]c2ccccc21 [ID # 205] | 35
* CC(=O)Nc1ccc(S)cc1 [ID # 083] | 542

Reported IC50 for Nc1ccc2c(c1)CCC2 [ID # 079] : what is it? 472

Reported IC50 for Oc1ccc2c(c1)OCO2 [ID # 009] : what is it? 775

Reported IC50 for COc1ccc(CS)cc1 [ID # 082] : what is it? 500

Reported IC50 for CSc1ccc(S)cc1 [ID # 102] : what is it? 126

----------
# System: Mel-Ab melanocytes
# method.notes: mammalian-melanocyte-culture pigment assay system
# Format: cell-based, mouse
# assay.setup: Mus musculus, Mel-Ab, read-out: P: concentration of compound that produces 50% inhibition in the mammalian-melanocyte-culture pigment assay system
Entries whose IC50 is below 80 µM take class 1; entries at or above 80 µM take class 0.

* NCCc1cccs1 | class 0
* COc1ccc(C(N)=S)cc1 | class 1
* COc1ccc(N)cc1OC | class 0
* CSc1ccc(S)cc1 | class 0
* Nc1ccc2c(c1)CCC2 | class 1

Note: attention shifts to another entry.
Check if IC50 falls below 80 µM for Oc1ccc2c(c1)OCO2 . class 0
